target.desc: T1, caspase-6 (UniProt P55212 24-293, limits assumed)
T1 sequence (looked up): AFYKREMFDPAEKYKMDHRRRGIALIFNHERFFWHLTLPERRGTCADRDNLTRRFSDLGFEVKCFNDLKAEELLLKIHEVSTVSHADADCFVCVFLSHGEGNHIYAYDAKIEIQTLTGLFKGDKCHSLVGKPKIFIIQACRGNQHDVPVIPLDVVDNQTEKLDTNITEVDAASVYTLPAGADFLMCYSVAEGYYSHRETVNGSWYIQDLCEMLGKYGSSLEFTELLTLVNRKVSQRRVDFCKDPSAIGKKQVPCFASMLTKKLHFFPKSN
assay.overview: cell-based or functional assay
Numbered stars: 1 amine (or outer) side, 2 acyl side, 3 side chain; on linkers, the order of the positions; unused ones are H or OH. Square brackets hold non-standard residues; d marks the D form. * marks the point of attachment. AAsp = aza-Asp, O=C(N(CC(=O)[*:3])N[*:1])[*:2]; azaAsp = O=C(N(CC(=O)[*:3])N[*:1])[*:2]; PhPr = N-terminal cap as named (PhPr); Cbz = O=C(OCc1ccccc1)*
Threshold rule: k2 greater than or equal to 100 M⁻¹ s⁻¹ is criterion met; below that, criterion not met.

[[record]]
binder = "PhPr-Val-Ala-[AAsp]-{(2S,3S)‑EP‑CON(CH2CH2CH2CH3)2} [PhPr-Val-Ala-AAsp-(2S,3S)-EP-CON(CH2CH2CH2CH3)2]"
label_value = "criterion not met"

[[record]]
binder = "Cbz-IET[azaAsp]-{(2S,3S)‑EP‑CON(CH2Ph)2} [Cbz-Ile-Glu-Thr-AAsp-(2S,3S)-EP-CON(CH2Ph)2]"
label_value = "criterion met"

[[record]]
binder = "Cbz-IET[azaAsp]-{(2S,3S)‑EP‑CON(CH3)CH2Ph} [Cbz-Ile-Glu-Thr-AAsp-(2S,3S)-EP-CON(CH3)CH2Ph]"
label_value = "criterion met"

[[record]]
binder = "PhPr-Val-Ala-[AAsp]-{(2S,3S)‑EP‑CON(CH2Ph)2} [PhPr-Val-Ala-AAsp-(2S,3S)-EP-CON(CH2Ph)2]"
label_value = "criterion met"

[[record]]
binder = "PhPr-Val-Ala-[AAsp]-{(2S,3S)‑EP‑CON(CH3)CH2Ph} [PhPr-Val-Ala-AAsp-(2S,3S)-EP-CON(CH3)CH2Ph]"
label_value = "criterion met"

